Recorded values, source paper PMC6107238.

- system-under-test: T1, ASR1 (Abscisic, Stress, Ripening 1) (Solanum lycopersicum (tomato), UniProt Q08655 1-115)
- T1 sequence: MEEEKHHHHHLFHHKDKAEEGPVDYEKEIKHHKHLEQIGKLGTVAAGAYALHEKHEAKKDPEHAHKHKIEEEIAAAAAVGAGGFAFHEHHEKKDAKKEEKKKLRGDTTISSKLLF
- assay-info: fluorescence anisotropy; 100 uM ZnCl2; Buffer H: 100 mM NaCl, 20 mM HEPES pH 7.4, with 100 uM ZnCl2; 250 nM FITC-dsDNA; anisotropy temperature not stated (CD at 25 C)
- condition-details: protein: recombinant; tags: untagged in the main text (original His6 removed); label: 5' FITC on one strand; blunt
pKd: −log10 of the molar value.
measured-parameter: pKd

- FITC-oligoS (dsDNA) DNA 1: AGTTCTGGTTGG DNA 2: CCAACCAGAACT: 5.97
- FITC-oligoC (dsDNA) DNA 1: TATTGGGCTTGG DNA 2: CCAAGCCCAATA: 6.67
